Reference for the values: PubChem BioAssay AID2551

- MEASURED_ON: Nuclear receptor ROR-gamma (Mus musculus) (UniProt P51450)
- Sequence (P51450 whole entry, looked up): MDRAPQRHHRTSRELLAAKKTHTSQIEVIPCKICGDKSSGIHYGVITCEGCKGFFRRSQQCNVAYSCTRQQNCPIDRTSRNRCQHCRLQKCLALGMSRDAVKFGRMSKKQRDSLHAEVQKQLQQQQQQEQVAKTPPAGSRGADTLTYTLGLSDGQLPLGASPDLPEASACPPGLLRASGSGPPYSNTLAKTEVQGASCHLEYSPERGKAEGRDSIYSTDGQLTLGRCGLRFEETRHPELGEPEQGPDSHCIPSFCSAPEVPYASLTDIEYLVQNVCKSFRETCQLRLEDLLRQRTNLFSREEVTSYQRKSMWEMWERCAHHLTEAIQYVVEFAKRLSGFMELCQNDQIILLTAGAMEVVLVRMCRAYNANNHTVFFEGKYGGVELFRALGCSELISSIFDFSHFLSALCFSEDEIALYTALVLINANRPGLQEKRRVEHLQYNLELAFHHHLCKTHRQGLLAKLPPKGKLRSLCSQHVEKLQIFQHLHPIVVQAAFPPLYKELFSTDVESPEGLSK
- ASSAY_SUMMARY: qHTS for inhibitors of ROR gamma transcriptional activity; also: nearly all actives have a fitted effect of over 60% in size
- RUN_CONDITIONS: Drosophila S2 Gal4-RORgamma UAS-luciferase reporter, 20 h; series mostly up to 53.6 µM
In all, about 310,000 compounds went through this assay and about 17,000 (5.5%) were called active. Inconclusive results (about 11%) are left out. Calls follow the shape of the dose curve; as a rule, active = well fitted inhibition curve with a large enough effect; inconclusive = small, poorly fitted or top-dose-only effect, or effect the other way; inactive = no such curve, though single readings can be large or run the other way. The sample as a whole holds a higher share of actives than the screen did.
Reply using exactly one outcome from active, inactive

Answered examples (3):
| COMPOUND | CLASS |
| --- | --- |
| Cc1ccc(Cl)cc1NC(=O)c1ccccn1 | inactive |
| Cn1c(=O)c(-c2ccccc2)nc2cnc(N3CCNCC3)nc21 | inactive |
| C/C(=C\C(=O)c1ccc(Br)cc1)N1CCCCC1 | inactive |

Tell me the assay call for `Cc1ccc(SCC(=O)Nc2ncc(C)s2)cc1` please.
inactive

Lab log entry: CC1CN/C(=C\C(=O)c2ccc(Br)cc2)C(=O)N1 (stereo unspecified) — outcome as called in the assay?
active

Please share the test call associated with `C/C(=N\Nc1nc(Nc2ccccc2)nc(N2CCOCC2)n1)c1cccs1` .
active

###

- MEASURED_ON: Nuclear receptor ROR-gamma (Mus musculus) (UniProt P51450)
- ASSAY_SUMMARY: qHTS for inhibitors of ROR gamma transcriptional activity; also: nearly all actives have a fitted effect of over 60% in size; also: potency is read from the fitted curve at half-maximal effect
- RUN_CONDITIONS: Drosophila S2 Gal4-RORgamma UAS-luciferase reporter, 20 h; series mostly up to 53.6 µM
About 17,000 (5.5%) of roughly 310,000 compounds were called active. Not shown: some 11% with an inconclusive outcome. The list comes from a sample in which actives are over-represented; it also holds close analogues and randomly drawn compounds.
MEASURED_ENDPOINT: Potency

As a guide, the following entries are already answered.
| COMPOUND | Potency |
| --- | --- |
| O=C(Nc1ccccc1Cl)/C(Cl)=C(\Cl)S(=O)c1ccccc1 (configuration not stated) | 0.891 µM (active) |
| COc1cc(C(=O)OC2CCOC2=O)c([N+](=O)[O-])cc1OC (configuration not stated) | inactive |
| COc1ccc(CNC(=O)CSc2n[nH]c(N)n2)cc1OC | inactive |
| CSc1ncccc1C(=O)NCc1ccccc1Cl | inactive |
| CCc1nc(Nc2ccc(NC(C)=O)cc2)c2oc3ccccc3c2n1 | inactive |

Proceed to the following item.
Measured Potency of `COc1cc(CO)ccc1OCC(=O)Nc1cccc2ccccc12` : inactive

###

- MEASURED_ON: Nuclear receptor ROR-gamma (Mus musculus) (UniProt P51450)
- ASSAY_SUMMARY: qHTS for inhibitors of ROR gamma transcriptional activity; also: nearly all actives have a fitted effect of over 60% in size
- RUN_CONDITIONS: Drosophila S2 Gal4-RORgamma UAS-luciferase reporter, 20 h; series mostly up to 53.6 µM
The campaign covered roughly 310,000 compounds. About 17,000 (5.5%) were called active. Another 11% or so got no clear call; they are omitted. Calls follow the shape of the dose curve; as a rule, active = well fitted inhibition curve with a large enough effect; inconclusive = small, poorly fitted or top-dose-only effect, or effect the other way; inactive = no such curve, though single readings can be large or run the other way. Many of the other results were omitted from the sample, so actives are more common in it than they were.
Output constraint: value belongs to active, inactive

| STRUCTURE_NOTATION | CLASS |
| --- | --- |
| CCOC(OCC)c1ccc(/C=C\c2nccc(N)n2)cc1 | inactive |
| Cc1ccc(S(=O)(=O)NNC(=O)/C=C/c2cccc(F)c2)cc1 | inactive |

Lab log entry: `C=CCn1c(CCNC(=O)c2cccs2)n[nH]c1=S` — outcome as called in the assay?
active

Assay outcome for `Cc1ccc(C)c2[nH]c(=O)c(CCNC(=O)c3cccs3)cc12` : what was it?
inactive

Answer briefly: the call reported for `CCOc1c(Cl)cc(/C=N/O)cc1OC` in this assay.
inactive

State the result this test recorded for `Cc1sc2nc(SCCO)n(-c3ccccc3)c(=O)c2c1C` .
inactive
